- Protocol Notes: LAP4-GFP expression modulators in yeast, confirmation, cell-based, cherry picks, flow cytometry, mother/daughter gates (AID 2271);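 note: ratio of sample to DMSO plate mean so 100% equals DMSO level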
- Experimental Conditions: S. cerevisiae LAP4-GFP strain, 3 h, at 10 µM, hits give high values
Readout Label: GFP response relative to DMSO (%)

[
  {
    "Compound": "C#CCOc1cc(C2C3=C(COC3=O)Nc3cc4c(cc32)OCO4)ccc1OC (stereo not given)",
    "Data Value": 113
  },
  {
    "Compound": "O=C(O)c1nn(Cc2ccc(Cl)cc2Cl)c2ccccc12",
    "Data Value": 103
  },
  {
    "Compound": "CCCCn1c(=O)c(C(=O)Nc2ccsc2C(=O)OC)c(O)c2ccccc21",
    "Data Value": 94.4
  },
  {
    "Compound": "CN1C(=O)NC(=O)/C(=C\\C=C\\c2ccccc2[N+](=O)[O-])C1=O",
    "Data Value": 107
  },
  {
    "Compound": "Cc1ccc(N2C(=O)NC(=O)/C(=C\\c3cn(CC(=O)O)c4ccccc34)C2=O)cc1",
    "Data Value": 102
  },
  {
    "Compound": "C#C[C@]1(O)CC[C@H]2[C@@H]3CCC4=CC(=O)CC[C@]4(C)[C@H]3CC[C@@]21C",
    "Data Value": 103
  },
  {
    "Compound": "O=c1[nH]c(=O)n(Cc2ccc(F)cc2)c(O)c1C=NCCN1CCCCC1",
    "Data Value": 95.3
  },
  {
    "Compound": "O=C1C(=O)c2ccccc2-c2ccccc21",
    "Data Value": 171
  },
  {
    "Compound": "CC[C@@H]1C(=O)OC[C@@H]1Cc1cncn1C",
    "Data Value": 102
  },
  {
    "Compound": "COc1cc(/C=C/C(=O)c2c(O)n(CCc3ccccc3)c(=O)[nH]c2=O)ccc1O",
    "Data Value": 90
  }
]
